Biological target: T1, VEGFR-3-Fc (UniProt P35916 25-328)
T1 construct: domain: first three Ig domains; conditioned supernatant of 293T cells; also called VEGFR-3-Fc fusion protein; not shown: Fc fragment of the pIg vector
T1 sequence (looked up): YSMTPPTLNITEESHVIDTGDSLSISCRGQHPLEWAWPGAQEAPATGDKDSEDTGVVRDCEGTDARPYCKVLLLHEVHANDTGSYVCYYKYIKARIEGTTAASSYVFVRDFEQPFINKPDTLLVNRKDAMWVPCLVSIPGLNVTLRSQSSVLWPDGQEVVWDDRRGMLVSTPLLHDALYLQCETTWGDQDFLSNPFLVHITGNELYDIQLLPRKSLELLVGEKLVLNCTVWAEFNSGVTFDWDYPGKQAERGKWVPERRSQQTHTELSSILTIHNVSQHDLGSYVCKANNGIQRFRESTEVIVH
Experiment: receptor-Fc IP
Excerpt: The binding assay procedure was identical to the immunoprecipitation using pentahistidine antibody described in Example 2, apart from the composition of the immunoprecipitation (IP) mixes. […]

binder: 41-5 (ligand) AHYNTEILKFMDVYQRSYCHPREVCIDVGKEYPDEIEYIFKPSCVPLMRCGGCCNDEGLECVPTEESNITMQIMRIKPHQGQHIGEMSFANHTSCRCMSKLD
binding result: no binding

binder: 64-16 (ligand) GQNHHEVVKFMDVYQRSYCHPREVCIDVGKEFGVATNTFFKPSCVPLMRCGGCCNSEGLQCMNTSTSYLSKTLFEITVPLSQGPKPVTISFANHTSCRCMSKLD
binding result: no binding
